- System: c-Src
- assay-explanation: phosphorylation enrichment, bacterial display (enrichment ratio); higher = better substrate or ligand; peptides without Tyr show the background
Categories are defined by ranges of phosphorylation enrichment, namely bin 1: < 0.5; bin 2: ≥ 0.5 and < 0.8; bin 3: ≥ 0.8

Lab note: sort VIEFSYTSADG [DHCR7_Y382_C380Y_YF] into the matching phosphorylation enrichment band.
bin 1

Lab log: CDFKKYGKGLR [ZNF445_Y433_Y428C_YF] — assign phosphorylation enrichment category
bin 1

Category of RGKDNYETSQL [SPP1_Y225_S224N] , please.
bin 2

Returns: class label. Input: EPFELYCEMGS [CBL_Y371_Q367P_YF]
bin 3

Using the reported phosphorylation enrichment, which band applies to LERDIYNREEF [HLA-DPB1_Y59_Y57D] ?
bin 3

Hey, which category is KAIDMYLMGCF [GABRB2_Y308] in, do you know?
bin 2

# bin lookup: classify TRNRDYDDIDD [TTYH2_Y424] by its phosphorylation enrichment
bin 1

Form: Item = VSLEAYCKHKF [RXRA_Y403_A398V_YF] ; Class = ?
bin 2

Just checking, what class would you give DLDTEYGSGFP [RNASEH2A_Y206_D205E_YF] here?
bin 3

Which phosphorylation enrichment category applies to NKHTNYTMEHI [ACTN1_Y708] here?
bin 1

// return the class label for ERFAFYRDSPR [FOXE3_Y108]
bin 2

Which class does RRIHSNRGHLW [VHL_Y112_Y112N] fall in?
bin 2

Input DPYHVYIKNHV [KCNE3_Y95_R99H] ; output its category
bin 3

Please let me know in which category the item RETLTYAQAQG [BRD1_Y33_R38G] belongs.
bin 2

Lab note: which band did MFNPCYGLFEF [NEDD4L_Y680_Y679C_YF] land in?
bin 3

State the class of the sequence shown: ITKNPYDPPGR
bin 1

Hi there! Could you help me figure out the category for VDSAHYQLLET [DTX3L_Y385_K386Q] please?
bin 2

---

- tested-system: c-Src SH2;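 further: peptide library displayed on the E. coli surface as eCPX fusions, selected cells deep-sequenced, score is each peptide's frequency after selection divided by its frequency in the input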
- assay-explanation: SH2 binding enrichment of the phosphorylated peptide, bacterial display (enrichment ratio); higher = better substrate or ligand; peptides without Tyr show the background
Would you mind telling me the reported SH2 binding enrichment of each entry?
Number, no unit, nothing else.

What does the record list as SH2 binding enrichment for VDTPMYATMQR [TPO_Y55_A53P] ?
2.09

Looking for the measured SH2 binding enrichment of LQFKNYQQLFD [MAN2A1_Y442] , can you help?
1.58

Look up SH2 binding enrichment for this sequence: RASSVFTRSTG [CCR5_Y339_Y339F]
0.455

Entry TVLEPYTDPYY [ZC3H18_Y367_A368T] : reported SH2 binding enrichment = ?
1.28

# SH2 binding enrichment lookup, item TGFRPYVCPFD [YY1_Y383_D380Y_YF]
0.56

# SH2 binding enrichment lookup, item YHIDHYLGKEM [G6PD_Y202_R198H]
0.573

Data request, read-out SH2 binding enrichment, for YIATQYSLRPR [LBR_Y166]
0.392

Data request, read-out SH2 binding enrichment, for LPKEQYLCTKE [AFG3L2_Y614_Y616C]
0.584

Entry SVVVPYEPPEI [TP53_Y220_V225I] : reported SH2 binding enrichment = ?
0.844

What does the record list as SH2 binding enrichment for KVGPGYLGSRG [RET_Y826_G830R] ?
0.588

Given the sequence SVKVYYKKCWS [EPHA7_Y202] , what is its reported SH2 binding enrichment?
0.393

So what's the measured SH2 binding enrichment for this one? LLREWYVQDPF [SIX3_Y225_L226V_YF]
1.11

Recorded SH2 binding enrichment for PLQNTYNFNVL [SLC4A1_Y553_K551N_YF] , please?
0.624

Fill in the blank: the reported SH2 binding enrichment of KAEQLYIGVTV [EFHC2_Y509_E507Q] is ____.
0.454

What value of SH2 binding enrichment has been reported for the following sequence? DSSIRYLQEIH [FGG_Y135_Y140H]
0.499

Reported SH2 binding enrichment for VNYGAYINDFK [GLB1_Y488] : what is it?
4.76

I would be grateful if you could share the reported SH2 binding enrichment for KEKLCYVAPDF [ACTA1_Y220_L223P] .
0.724

Which value of SH2 binding enrichment has been reported for IGKDLYANNVL [ACTA2_Y296_R292G] in the records?
0.535

// SH2 binding enrichment lookup, key: QADVTYVNTQL [MERTK_Y872_I871T]
0.964
